Read-out: ABC Transporter (ABCB11), ABCB11 (gene 8647)
Assay: LTEA_HepaRG_ABCB11: Life Technologies and Expression Analysis (LTEA) Assay for ABC Transporter (ABCB11) using HepaRG (AID 2283463)
Settings: mRNA level, 48 h; actives raise or lower the signal
Protocol: LTEA_HepaRG is a cell based, multiplexed-readout assay that uses HepaRG, a human liver cell line, with measurements taken at 48 hours after chemical dosing on a 96-well plate.LTEA_HepaRG_ABCB11 is one of 102 assay component(s) measured in the LTEA HepaRG cell culture assay. It is a marker of Steatosis/NR mediated transport.Data from the assay component LTEA_HepaRG_ABCB11 was analyzed into 1 endpoint. […]
The source made the active and inactive calls. How the source made its calls: active means hit-call score of the fitted dose curve at least 0.9, where 1 is the maximum; inactive means score below 0.9.
// allowed return values: yes (1) for active, no (0) for inactive

Examples from the recorded data:
>>> grouplabel("C[C@]12CC[C@@H]3c4ccc(O)cc4CC[C@H]3[C@@H]1CCC2=O")
"no (0)"
>>> grouplabel("CCN(CC)C(=O)c1cc(S(=O)(=O)Cc2ccccc2)c(N2CCC(c3ccccc3)CC2)cc1N(CC)CCN(C)C")
"no (0)"
>>> grouplabel("Cc1ccc2oc(CN(Cc3ccccc3)C(=O)Nc3c(F)cc(F)cc3F)c(-c3ccc(Cl)cc3)c2c1")
"no (0)"
>>> grouplabel("CO[C@H]1/C=C/O[C@@]2(C)Oc3c(C)c(O)c4c(O)c(c(/C=N/N5CCN(C)CC5)c(O)c4c3C2=O)NC(=O)/C(C)=C\\C=C\\[C@H](C)[C@H](O)[C@@H](C)[C@@H](O)[C@@H](C)[C@H](OC(C)=O)[C@@H]1C")
"no (0)"

*Q* Lab log entry: `Cc1ncc(CO)c(CO)c1O` — outcome as called in the assay?
*A* no (0)

*Q* Lab log entry: `Cc1cccc2ccccc12` — outcome as called in the assay?
*A* no (0)

*Q* Lab log entry: `CCCC(=O)OCCC(C)C` — outcome as called in the assay?
*A* no (0)

*Q* Lab log entry: `CN1C(=O)CC[C@H]1c1cccnc1` — outcome as called in the assay?
*A* no (0)

*Q* Lab log entry: `CCN(Cc1cccnc1)C(=O)c1cccc(Cl)c1[C@]1(C)C(=O)N(Cc2ccc(OC)cc2OC)c2ccc(Cl)cc21` — outcome as called in the assay?
*A* yes (1)

*Q* Lab log entry: `Oc1ccc2ccccc2c1` — outcome as called in the assay?
*A* no (0)
